test system: MDA-MB-231 multicell spheroids, viability; experiment: Anticancer human tumor MDA-MB-231 cell line growth inhibition [PI3K]; settings: second compound 0.1 µM; first compound 0.1 µM; hits give low values;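 also: spheroids exposed to agents for seven days before reading; percent of vehicle control luminescence with DMSO treated spheroids as 100%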
Please use MET for viability, T/C under 90% and NOT MET for everything else, ties included.

Previously resolved entries follow.
CCN1CCN(Cc2ccc(Nc3ncc(F)c(-c4cc(F)c5nc(C)n(C(C)C)c5c4)n3)nc2)CC1 + COc1c(OCCCN2CCOCC2)ccc2c3n(c(=NC(=O)c4cnc(N)nc4)nc12)CCN3	MET
CCCS(=O)(=O)Nc1ccc(F)c(C(=O)c2c[nH]c3ncc(-c4ccc(Cl)cc4)cc23)c1F + Cc1nc(NC(=O)N2CCCC2C(N)=O)sc1-c1ccnc(C(C)(C)C(F)(F)F)c1	NOT MET
C=CC(=O)N1CCN(c2nc(=O)n(-c3c(C)ccnc3C(C)C)c3nc(-c4c(O)cccc4F)c(F)cc23)C(C)C1 (stereo not given) + Cc1nc(NC(=O)N2CCCC2C(N)=O)sc1-c1ccnc(C(C)(C)C(F)(F)F)c1	MET

## Input # check: viability, T/C < 90% for CC(C)n1nc(-c2ccc3oc(N)nc3c2)c2c(N)ncnc21 + CC(Nc1ncnc2nc[nH]c12)c1cc2cccc(Cl)c2c(=O)n1-c1ccccc1
## Output MET

## Input Also, C[C@@H](NC(=O)c1ncnc(N)c1Cl)c1ncc(C(=O)Nc2cc(C(F)(F)F)c(Cl)cn2)s1 + CC(Nc1ncnc2nc[nH]c12)c1cc2cccc(Cl)c2c(=O)n1-c1ccccc1 please.
## Output NOT MET

----------
tested on: MDA-MB-231 multicell spheroids, viability; assay: Anticancer human tumor MDA-MB-231 cell line growth inhibition [PI3K]; details: second compound 0.0316 µM; first compound 0.1 µM; hits give low values;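 also: spheroids exposed to agents for seven days before reading; percent of vehicle control luminescence with DMSO treated spheroids as 100%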
The molecules listed here are annotated with their viability, T/C.
Enter your answer as a number in %; do not include the unit.

Below: 4 molecules and their reported viability, T/C.
CC(C)NCC(C(=O)N1CCN(c2ncnc3c2C(C)CC3O)CC1)c1ccc(Cl)cc1 (stereo not given) + CC(Nc1ncnc2nc[nH]c12)c1cc2cccc(Cl)c2c(=O)n1-c1ccccc1	98
Cn1ncc(Cl)c1-c1cc(C(=O)NC(CN)Cc2cccc(F)c2)sc1Cl (stereo not given) + Cc1nc(NC(=O)N2CCCC2C(N)=O)sc1-c1ccnc(C(C)(C)C(F)(F)F)c1	89.2
CC(Cn1ccc(-c2ccc(C#N)c(Cl)c2)n1)NC(=O)c1cc(C(C)O)[nH]n1 (stereo not given) + COc1c(OCCCN2CCOCC2)ccc2c3n(c(=NC(=O)c4cnc(N)nc4)nc12)CCN3	63.9
C#Cc1c(F)ccc2cc(O)cc(-c3ncc4c(N5CC6CCC(C5)N6)nc(OCC56CCCN5CC(F)C6)nc4c3F)c12 (stereo not given) + CC(Nc1ncnc2nc[nH]c12)c1cc2cccc(Cl)c2c(=O)n1-c1ccccc1	96.2

## Input Recall the recorded viability, T/C for Cn1ncnc1[C@H]1c2n[nH]c(=O)c3cc(F)cc(c23)N[C@@H]1c1ccc(F)cc1 + Cc1nc(NC(=O)N2CCCC2C(N)=O)sc1-c1ccnc(C(C)(C)C(F)(F)F)c1 with MDA-MB-231 multicell spheroids, viability and state it.
## Output 72.6

----------
system: MDA-MB-231 multicell spheroids, viability; assay: Anticancer human tumor MDA-MB-231 cell line growth inhibition [PI3K]; conditions: second compound 1 µM; first compound 10 µM; hits give low values;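 also: spheroids exposed to agents for seven days before reading; percent of vehicle control luminescence with DMSO treated spheroids as 100%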
// reported viability, T/C per item
Form entry: value (%) — number only.

C=CC(=O)N1CCN(c2nc(=O)n(-c3c(C)ccnc3C(C)C)c3nc(-c4c(O)cccc4F)c(F)cc23)C(C)C1 (stereo not given) + CC(Nc1ccc2c(c1)OCCn1cc(N3C(=O)OCC3C(F)F)nc1-2)C(N)=O	40.3
Cn1ncc(Cl)c1-c1cc(C(=O)NC(CN)Cc2cccc(F)c2)sc1Cl (stereo not given) + Cc1nc(NC(=O)N2CCCC2C(N)=O)sc1-c1ccnc(C(C)(C)C(F)(F)F)c1	24.5
CNC(=O)c1ccc(N2C(=S)N(c3ccc(C#N)c(C(F)(F)F)c3)C(=O)C2(C)C)cc1F + COc1c(OCCCN2CCOCC2)ccc2c3n(c(=NC(=O)c4cnc(N)nc4)nc12)CCN3	22.9

## Input What viability, T/C appears in the records for this molecule with MDA-MB-231 multicell spheroids, viability? C=CC(=O)N1CCN(c2nc(=O)n(-c3c(C)ccnc3C(C)C)c3nc(-c4c(O)cccc4F)c(F)cc23)C(C)C1 (stereo not given) + CC(Nc1ncnc2nc[nH]c12)c1cc2cccc(Cl)c2c(=O)n1-c1ccccc1
## Output 96

## Input CC(C)NCC(C(=O)N1CCN(c2ncnc3c2C(C)CC3O)CC1)c1ccc(Cl)cc1 (stereo not given) + CC(Nc1ccc2c(c1)OCCn1cc(N3C(=O)OCC3C(F)F)nc1-2)C(N)=O ?
## Output 34.9

Origin of the recorded values: PubChem BioAssay AID1963958
